Give measured MIC for each item. Keep answers brief.
system: Haemophilus influenzae C.L.; assay: MIC, standard agar-dilution assay; format: cell-based

IN: Output measured MIC for this item: CCCCCCCCCCN(C)C(CC(C)C)C(=O)NC1C(=O)NC(CC(N)=O)C(=O)NC2C(=O)NC3C(=O)NC(C(=O)NC(C(=O)O)c4cc(O)cc(O)c4-c4cc3ccc4O)C(O)c3ccc(c(Cl)c3)Oc3cc2cc(c3OC2OC(CO)C(O)C(O)C2OC2CC(C)(N)C(O)C(C)O2)Oc2ccc(cc2Cl)C1O (stereo not shown)
OUT: 128 µg/mL

IN: Output measured MIC for this item: CCCCCCCCN(C)C(CC(C)C)C(=O)NC1C(=O)NC(CC(N)=O)C(=O)NC2C(=O)NC3C(=O)NC(C(=O)NC(C(=O)O)c4cc(O)cc(O)c4-c4cc3ccc4O)C(O)c3ccc(c(Cl)c3)Oc3cc2cc(c3OC2OC(CO)C(O)C(O)C2OC2CC(C)(N)C(O)C(C)O2)Oc2ccc(cc2Cl)C1O (stereo not shown)
OUT: 128 µg/mL

IN: Output measured MIC for this item: CCCCCNC1(C)CC(OC2C(Oc3c4cc5cc3Oc3ccc(cc3Cl)C(O)C3NC(=O)C(NC(=O)C5NC(=O)C(CC(N)=O)NC(=O)C(NC(=O)C(CC(C)C)NC)C(O)c5ccc(c(Cl)c5)O4)c4ccc(O)c(c4)-c4c(O)cc(O)cc4C(C(=O)O)NC3=O)OC(CO)C(O)C2O)OC(C)C1O (stereo not shown)
OUT: 128 µg/mL

IN: Output measured MIC for this item: CCCCCCCCCCNC1(C)CC(OC2C(Oc3c4cc5cc3Oc3ccc(cc3Cl)C(O)C(NC(=O)C(CC(C)C)[N+](C)(C)C)C(=O)NC(CC(N)=O)C(=O)NC5C(=O)NC3C(=O)NC(C(=O)NC(C(=O)[O-])c5cc(O)cc(O)c5-c5cc3ccc5O)C(O)c3ccc(c(Cl)c3)O4)OC(CO)C(O)C2O)OC(C)C1O (stereo not shown) [Compound 124, N^van --(n-decyl)-M43A]
OUT: > 64 µg/mL

IN: Output measured MIC for this item: CCCCOc1ccc(CNC2(C)CC(OC3C(Oc4c5cc6cc4Oc4ccc(cc4Cl)C(O)C4NC(=O)C(NC(=O)C6NC(=O)C(CC(N)=O)NC(=O)C(NC(=O)C(CC(C)C)NC)C(O)c6ccc(c(Cl)c6)O5)c5ccc(O)c(c5)-c5c(O)cc(O)cc5C(C(=O)O)NC4=O)OC(CO)C(O)C3O)OC(C)C2O)cc1 (stereo not shown)
OUT: 32 µg/mL

IN: Output measured MIC for this item: CNC(CC(C)C)C(=O)NC1C(=O)NC(CC(N)=O)C(=O)NC2C(=O)NC3C(=O)NC(C(=O)NC(C(=O)O)c4cc(O)cc(O)c4-c4cc3ccc4O)C(O)c3ccc(c(Cl)c3)Oc3cc2cc(c3OC2OC(CO)C(O)C(O)C2OC2CC(C)(NCc3ccc(O)cc3)C(O)C(C)O2)Oc2ccc(cc2Cl)C1O (stereo not shown) [Example 105, N^van --( -p-hydroxybenzyl)vancomycin]
OUT: 64 µg/mL

IN: Output measured MIC for this item: CCCCCCCCOc1ccc(CNC2(C)CC(OC3C(Oc4c5cc6cc4Oc4ccc(cc4Cl)C(O)C4NC(=O)C(NC(=O)C6NC(=O)C(CC(N)=O)NC(=O)C(NC(=O)C(CC(C)C)NC)C(O)c6ccc(c(Cl)c6)O5)c5ccc(O)c(c5)-c5c(O)cc(O)cc5C(C(=O)O)NC4=O)OC(CO)C(O)C3O)OC(C)C2O)cc1 (stereo not shown)
OUT: > 128 µg/mL

IN: Output measured MIC for this item: CCCCCCCCCCNC1(C)CC(OC2C(Oc3c4cc5cc3Oc3ccc(cc3Cl)C(O)C(NC(=O)C(CC(C)C)N(C)CCCCCCCCCC)C(=O)NC(CC(N)=O)C(=O)NC5C(=O)NC3C(=O)NC(C(=O)NC(C(=O)O)c5cc(O)cc(O)c5-c5cc3ccc5O)C(O)c3ccc(c(Cl)c3)O4)OC(CO)C(O)C2O)OC(C)C1O (stereo not shown)
OUT: > 128 µg/mL

IN: Output measured MIC for this item: CCCCCCNC1(C)CC(OC2C(Oc3c4cc5cc3Oc3ccc(cc3Cl)C(O)C3NC(=O)C(NC(=O)C5NC(=O)C(CC(N)=O)NC(=O)C(NC(=O)C(CC(C)C)NC)C(O)c5ccc(c(Cl)c5)O4)c4ccc(O)c(c4)-c4c(O)cc(O)cc4C(C(=O)O)NC3=O)OC(CO)C(O)C2O)OC(C)C1O (stereo not shown)
OUT: 128 µg/mL

IN: Output measured MIC for this item: CNC(CC(C)C)C(=O)NC1C(=O)NC(CC(N)=O)C(=O)NC2C(=O)NC3C(=O)NC(C(=O)NC(C(=O)O)c4cc(O)cc(O)c4-c4cc3ccc4O)C(O)c3ccc(c(Cl)c3)Oc3cc2cc(c3OC2OC(CO)C(O)C(O)C2OC2CC(C)(NCc3ccc(Br)cc3)C(O)C(C)O2)Oc2ccc(cc2Cl)C1O (stereo not shown)
OUT: 64 µg/mL
